Attribute: Growth Rate
System: U2OS
Test details: Incucyte cell viability with U2OS; further: filed as whole numbers so only -1 and 0 and 1 occur
Format: toxicity, cell-based
Condition summary: human, 0 h, 10 µM, compound concentration 10 uM, replicate number 2, timepoint 0 hours

Solved entries (count: 2):
* CCOC(=O)c1ccc(C#Cc2ccc3c(c2)C(C)(C)CCS3)nc1 | 0
* CC[C@@H]1C(=O)N(C)c2cnc(Nc3ccc(C(=O)NC4CCN(C)CC4)cc3OC)nc2N1C1CCCC1 | 0

Dear colleague, I am looking for the recorded Growth Rate of the following compound: `Cn1cc(Cl)c2c(Oc3c(F)cc(Nc4cc(Cl)nc(N)n4)cc3F)ccnc21`
0

Dear colleague, I am looking for the recorded Growth Rate of the following compound: `N#CCNC(=O)c1ccc(-c2ccnc(Nc3ccc(N4CCOCC4)cc3)n2)cc1`
1

Source listed as ChEMBL document CHEMBL4689842.
